Reported values: pKi for CA I (Homo sapiens, UniProt P00915), one per item.
pKi: −log10 of the molar value.

Cc1c(OCC(F)(F)F)ccnc1C[S+]([O-])c1nc2ccccc2n1C(=O)OCCOc1ccc2ccc(=O)oc2c1 (centres unmarked) [Compound A2]	< 5.00

Now look at this entry.
What value of pKi on CA I (Homo sapiens, UniProt P00915) does O=c1ccc2cc(OCCO)ccc2o1 [Compound G1A, 6-(2-hydroxyethoxy)-2H-chromen-2-one] have?
< 5.00

---

Reported values: pKi for CA IX (Homo sapiens), one per item.
Just the number, please; pKi means minus log10 of the concentration in mol/L.

O=c1ccc2ccc(OCCO)cc2o1	6.48

Now look at this entry.
Requested read-out: pKi. Entry: O=c1ccc2cc(OCCO)ccc2o1 [Compound G1A, 6-(2-hydroxyethoxy)-2H-chromen-2-one]
6.51

Numbers sourced from patent US20250099446A1.
